compounds and their reported pIC50
Biological target: Tyrosine-protein phosphatase non-receptor type 11 (Homo sapiens)
Sequence (Q06124 whole entry): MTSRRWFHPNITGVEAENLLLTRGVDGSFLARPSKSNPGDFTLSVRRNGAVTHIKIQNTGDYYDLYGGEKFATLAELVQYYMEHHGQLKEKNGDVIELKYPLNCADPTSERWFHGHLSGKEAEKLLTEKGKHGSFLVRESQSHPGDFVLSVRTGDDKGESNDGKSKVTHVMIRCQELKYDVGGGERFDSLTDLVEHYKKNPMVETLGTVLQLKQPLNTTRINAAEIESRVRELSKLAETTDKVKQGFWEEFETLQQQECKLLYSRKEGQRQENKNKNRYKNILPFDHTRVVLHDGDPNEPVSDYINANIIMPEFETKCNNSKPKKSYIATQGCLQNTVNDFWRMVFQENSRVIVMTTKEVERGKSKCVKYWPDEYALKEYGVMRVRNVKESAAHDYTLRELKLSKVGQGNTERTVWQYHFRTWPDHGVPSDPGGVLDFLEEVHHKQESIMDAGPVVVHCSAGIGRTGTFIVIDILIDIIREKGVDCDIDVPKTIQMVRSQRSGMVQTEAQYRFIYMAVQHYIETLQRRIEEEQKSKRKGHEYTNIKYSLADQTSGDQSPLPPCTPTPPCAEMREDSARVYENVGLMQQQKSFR
Test: Inhibition of recombinant SHP2 (unknown origin) using pNPP as substrate by spectrophotometric method
Note on pIC50: it is the negative log10 of concentration, concentration in mol/L.

Recorded pIC50, per entry:
O=C(COc1ccc2cc(C(O)(C(F)(F)F)C(F)(F)F)c(O)cc2c1)Nc1nc2ccccc2s1: 4.89
O=C(COc1ccc2cc(C(O)(C(F)(F)F)C(F)(F)F)c(O)cc2c1)NC12CC3CC(CC(C3)C1)C2: 5.05
Oc1c(-c2ccccc2)cccc1C(O)(C(F)(F)F)C(F)(F)F: 3.87

Shift focus to the following entry.
Task item: Query: pIC50; subject: O=C(COc1ccc2cc(C(O)(C(F)(F)F)C(F)(F)F)c(O)cc2c1)Nc1ccc(-c2ccccc2)cc1
Reply: 5.46

---

Molecular target: UniProt Q06124
Experiment: Inhibition of recombinant SHP2 (unknown origin) using pNPP as substrate by spectrophotometric method
measured_quantity: IC50 (µM)
Could you give me the number in µM? Just the number is fine.

O=C(COc1ccc2cc(C(O)(C(F)(F)F)C(F)(F)F)c(O)cc2c1)NC1c2ccccc2-c2ccccc21: 6.9
Cc1ccc(O)c(C(O)(C(F)(F)F)C(F)(F)F)c1: 202

Task item: Query: IC50; subject: O=C(COc1ccc2cc(C(O)(C(F)(F)F)C(F)(F)F)c(O)cc2c1)N1c2ccccc2Sc2ccccc21
Reply: 3.2

Task item: Query: IC50; subject: Oc1ccc(-c2ccccc2)cc1C(O)(C(F)(F)F)C(F)(F)F
Reply: 392

---

compounds and their reported IC50
Target: Tyrosine-protein phosphatase non-receptor type 22 (Homo sapiens, UniProt Q9Y2R2)
Assay: Inhibition of recombinant LYP (unknown origin) using pNPP as substrate by spectrophotometric method

Oc1ccc(-c2ccccc2)cc1C(O)(C(F)(F)F)C(F)(F)F: > 500 µM
CC(C)c1ccc(NC(=O)COc2ccc3cc(C(O)(C(F)(F)F)C(F)(F)F)c(O)cc3c2)cc1: 8.8 µM
O=C(COc1ccc2cc(C(O)(C(F)(F)F)C(F)(F)F)c(O)cc2c1)NC12CC3CC(CC(C3)C1)C2: 10.1 µM
O=C(COc1ccc2cc(C(O)(C(F)(F)F)C(F)(F)F)c(O)cc2c1)Nc1ccc(-c2ccccc2)cc1: > 20 µM
O=C(COc1ccc2cc(C(O)(C(F)(F)F)C(F)(F)F)c(O)cc2c1)NCc1ccccc1: > 20 µM

Task item: Query: IC50; subject: O=C(COc1ccc2cc(C(O)(C(F)(F)F)C(F)(F)F)c(O)cc2c1)NC1CC1
Reply: > 20 µM

---

Target: UniProt Q9Y2R2
Sequence (Q9Y2R2 whole entry): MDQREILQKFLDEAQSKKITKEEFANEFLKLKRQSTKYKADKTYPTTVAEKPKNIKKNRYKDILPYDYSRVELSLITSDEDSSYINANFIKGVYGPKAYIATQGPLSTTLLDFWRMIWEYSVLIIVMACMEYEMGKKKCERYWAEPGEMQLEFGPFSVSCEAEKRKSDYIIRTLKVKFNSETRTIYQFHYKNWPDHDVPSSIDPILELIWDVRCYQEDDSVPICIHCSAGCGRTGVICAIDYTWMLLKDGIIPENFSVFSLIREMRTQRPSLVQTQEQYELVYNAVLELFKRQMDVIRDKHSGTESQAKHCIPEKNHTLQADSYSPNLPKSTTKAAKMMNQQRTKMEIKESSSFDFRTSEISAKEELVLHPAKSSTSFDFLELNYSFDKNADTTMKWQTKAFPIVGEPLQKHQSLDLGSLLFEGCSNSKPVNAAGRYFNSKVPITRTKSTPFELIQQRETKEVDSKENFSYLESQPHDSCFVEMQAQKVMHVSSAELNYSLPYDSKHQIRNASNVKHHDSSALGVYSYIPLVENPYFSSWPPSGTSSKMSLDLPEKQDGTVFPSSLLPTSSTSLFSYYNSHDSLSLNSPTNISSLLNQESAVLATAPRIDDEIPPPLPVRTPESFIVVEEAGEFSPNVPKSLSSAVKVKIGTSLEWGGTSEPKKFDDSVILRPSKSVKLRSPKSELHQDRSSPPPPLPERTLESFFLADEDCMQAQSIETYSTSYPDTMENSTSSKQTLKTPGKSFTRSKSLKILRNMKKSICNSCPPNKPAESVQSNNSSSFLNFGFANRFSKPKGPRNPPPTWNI
Assay: Inhibition of recombinant LYP (unknown origin) using pNPP as substrate by spectrophotometric method
molecules and their reported IC50

Recorded IC50, per entry:
O=C(COc1ccc2cc(C(O)(C(F)(F)F)C(F)(F)F)c(O)cc2c1)Nc1ccc(N2CCOCC2)cc1: > 20 µM
O=C(COc1ccc2cc(C(O)(C(F)(F)F)C(F)(F)F)c(O)cc2c1)Nc1ccccc1: > 20 µM
Cc1ccc(O)c(C(O)(C(F)(F)F)C(F)(F)F)c1: 303 µM
O=C(COc1ccc2cc(C(O)(C(F)(F)F)C(F)(F)F)c(O)cc2c1)NC1c2ccccc2-c2ccccc21: 7.5 µM
Oc1cc2ccccc2cc1C(O)(C(F)(F)F)C(F)(F)F: 134 µM
Oc1c(-c2ccccc2)cccc1C(O)(C(F)(F)F)C(F)(F)F: 268 µM
O=C(COc1ccc2cc(C(O)(C(F)(F)F)C(F)(F)F)c(O)cc2c1)N(c1ccccc1)c1ccccc1: 20.6 µM
O=C(COc1ccc2cc(C(O)(C(F)(F)F)C(F)(F)F)c(O)cc2c1)Nc1cccc2ccccc12: > 20 µM

Task item: API: value(readout= IC50, system= UniProt Q9Y2R2, query= CCN(CC)C(=O)COc1ccc2cc(C(O)(C(F)(F)F)C(F)(F)F)c(O)cc2c1 )
Reply: > 20 µM

Task item: API: value(readout= IC50, system= UniProt Q9Y2R2, query= Oc1cc(-c2ccccc2)ccc1C(O)(C(F)(F)F)C(F)(F)F )
Reply: > 500 µM

Task item: API: value(readout= IC50, system= UniProt Q9Y2R2, query= OC(c1ccccc1)(C(F)(F)F)C(F)(F)F )
Reply: > 500 µM

Task item: API: value(readout= IC50, system= UniProt Q9Y2R2, query= Oc1c(C(O)(C(F)(F)F)C(F)(F)F)ccc2ccccc12 )
Reply: > 500 µM

---

Target: Tyrosine-protein phosphatase non-receptor type 1 (Homo sapiens, UniProt P18031)
Sequence (P18031 whole entry): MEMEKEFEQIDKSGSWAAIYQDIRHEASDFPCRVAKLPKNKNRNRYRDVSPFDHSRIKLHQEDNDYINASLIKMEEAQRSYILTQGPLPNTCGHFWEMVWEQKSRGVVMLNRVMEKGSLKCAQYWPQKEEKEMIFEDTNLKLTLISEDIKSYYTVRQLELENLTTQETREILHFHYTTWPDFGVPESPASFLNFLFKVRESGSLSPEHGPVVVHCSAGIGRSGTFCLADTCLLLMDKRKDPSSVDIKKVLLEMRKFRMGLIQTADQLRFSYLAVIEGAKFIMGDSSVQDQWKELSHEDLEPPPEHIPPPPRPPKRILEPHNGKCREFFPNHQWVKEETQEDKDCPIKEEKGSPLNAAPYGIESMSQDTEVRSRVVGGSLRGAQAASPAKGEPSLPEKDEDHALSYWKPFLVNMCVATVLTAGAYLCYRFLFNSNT
Test: Inhibition of recombinant PTP1B (unknown origin) using pNPP as substrate by spectrophotometric method
measured_quantity: IC50

Recorded IC50, per entry:
Oc1cc2ccccc2cc1C(O)(C(F)(F)F)C(F)(F)F: 260 µM
O=C(COc1ccc2cc(C(O)(C(F)(F)F)C(F)(F)F)c(O)cc2c1)NCc1ccc(F)cc1: > 20 µM
O=C(COc1ccc2cc(C(O)(C(F)(F)F)C(F)(F)F)c(O)cc2c1)N1c2ccccc2Sc2ccccc21: 6.6 µM
Oc1cc(-c2ccccc2)ccc1C(O)(C(F)(F)F)C(F)(F)F: > 500 µM
O=C(COc1ccc2cc(C(O)(C(F)(F)F)C(F)(F)F)c(O)cc2c1)N(c1ccccc1)c1ccccc1: > 20 µM
Oc1c(C(O)(C(F)(F)F)C(F)(F)F)ccc2ccccc12: > 500 µM

Shift focus to the following entry.
Task item: API: value(readout= IC50, system= Tyrosine-protein phosphatase non-receptor type 1 (Homo sapiens, UniProt P18031), query= COc1ccc(CNC(=O)COc2ccc3cc(C(O)(C(F)(F)F)C(F)(F)F)c(O)cc3c2)cc1OC )
Reply: > 20 µM

---

Biological target: Receptor-type tyrosine-protein phosphatase C (Homo sapiens, UniProt P08575)
Sequence (P08575 whole entry): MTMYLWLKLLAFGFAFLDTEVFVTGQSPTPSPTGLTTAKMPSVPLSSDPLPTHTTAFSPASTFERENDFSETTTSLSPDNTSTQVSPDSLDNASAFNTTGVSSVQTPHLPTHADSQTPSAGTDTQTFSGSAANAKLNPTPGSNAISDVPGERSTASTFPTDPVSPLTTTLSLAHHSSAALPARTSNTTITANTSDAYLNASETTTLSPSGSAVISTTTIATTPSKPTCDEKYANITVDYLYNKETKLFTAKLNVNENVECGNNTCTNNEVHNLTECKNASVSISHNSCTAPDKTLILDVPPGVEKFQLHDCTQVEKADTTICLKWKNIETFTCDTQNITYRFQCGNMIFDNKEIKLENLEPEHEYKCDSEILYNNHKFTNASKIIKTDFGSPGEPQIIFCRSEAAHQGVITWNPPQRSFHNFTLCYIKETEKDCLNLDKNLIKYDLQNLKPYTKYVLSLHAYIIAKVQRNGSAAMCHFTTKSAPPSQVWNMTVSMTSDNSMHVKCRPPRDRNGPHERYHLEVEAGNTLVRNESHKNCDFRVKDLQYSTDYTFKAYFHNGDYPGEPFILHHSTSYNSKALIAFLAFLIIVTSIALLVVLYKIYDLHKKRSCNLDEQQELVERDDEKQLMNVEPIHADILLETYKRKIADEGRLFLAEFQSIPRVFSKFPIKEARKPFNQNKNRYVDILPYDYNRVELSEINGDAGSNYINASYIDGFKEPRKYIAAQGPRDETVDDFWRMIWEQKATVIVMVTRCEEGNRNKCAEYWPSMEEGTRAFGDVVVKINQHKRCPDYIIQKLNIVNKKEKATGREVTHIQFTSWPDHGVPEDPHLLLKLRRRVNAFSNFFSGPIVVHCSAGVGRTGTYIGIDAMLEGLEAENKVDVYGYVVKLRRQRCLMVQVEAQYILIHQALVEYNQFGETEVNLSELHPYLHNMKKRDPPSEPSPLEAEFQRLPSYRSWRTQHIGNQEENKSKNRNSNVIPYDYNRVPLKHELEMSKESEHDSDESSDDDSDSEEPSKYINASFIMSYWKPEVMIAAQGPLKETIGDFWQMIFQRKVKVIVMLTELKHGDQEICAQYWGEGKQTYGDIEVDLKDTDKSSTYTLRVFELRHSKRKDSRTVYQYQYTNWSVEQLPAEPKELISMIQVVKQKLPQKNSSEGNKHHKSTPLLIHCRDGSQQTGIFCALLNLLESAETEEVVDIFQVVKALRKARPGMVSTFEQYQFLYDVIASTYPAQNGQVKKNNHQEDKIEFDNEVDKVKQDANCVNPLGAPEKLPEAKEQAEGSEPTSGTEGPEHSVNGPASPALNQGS
Test: Inhibition of recombinant CD45 (unknown origin) using pNPP as substrate by spectrophotometric method
pIC50: −log10 of the molar value.
compounds and their reported pIC50

Task item: API: value(readout= pIC50, system= Receptor-type tyrosine-protein phosphatase C (Homo sapiens, UniProt P08575), query= O=C(COc1ccc2cc(C(O)(C(F)(F)F)C(F)(F)F)c(O)cc2c1)Nc1ccc(N2CCOCC2)cc1 )
Reply: < 4.70

Task item: API: value(readout= pIC50, system= Receptor-type tyrosine-protein phosphatase C (Homo sapiens, UniProt P08575), query= COc1ccc(CNC(=O)COc2ccc3cc(C(O)(C(F)(F)F)C(F)(F)F)c(O)cc3c2)cc1OC )
Reply: < 4.70

Task item: API: value(readout= pIC50, system= Receptor-type tyrosine-protein phosphatase C (Homo sapiens, UniProt P08575), query= O=C(COc1ccc2cc(C(O)(C(F)(F)F)C(F)(F)F)c(O)cc2c1)NCc1ccccc1 )
Reply: < 4.70

Task item: API: value(readout= pIC50, system= Receptor-type tyrosine-protein phosphatase C (Homo sapiens, UniProt P08575), query= Oc1cc(-c2ccccc2)ccc1C(O)(C(F)(F)F)C(F)(F)F )
Reply: < 3.30

Task item: API: value(readout= pIC50, system= Receptor-type tyrosine-protein phosphatase C (Homo sapiens, UniProt P08575), query= Oc1ccc(-c2ccccc2)cc1C(O)(C(F)(F)F)C(F)(F)F )
Reply: < 3.30
